Each entry below carries its recorded koff.
Experimental target: T1, human IL-2Rγ (common cytokine receptor γ-chain) (human, UniProt P31785 23-262, limits assumed)
T1 construct: Recombinant protein coated on the plate or immobilised on a CM5 chip; also called hu IL-2R; CD132
T1 sequence: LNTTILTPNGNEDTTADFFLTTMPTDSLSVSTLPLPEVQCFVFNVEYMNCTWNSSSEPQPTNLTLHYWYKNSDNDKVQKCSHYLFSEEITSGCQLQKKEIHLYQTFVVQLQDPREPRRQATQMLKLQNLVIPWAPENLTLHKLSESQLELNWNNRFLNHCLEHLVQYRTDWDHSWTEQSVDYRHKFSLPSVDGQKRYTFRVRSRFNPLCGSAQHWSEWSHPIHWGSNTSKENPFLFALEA
Test details: SPR off-rate ranking, periplasmic extract on immobilised protein

* FJ1427_P035MP04B07 (VHH, VHH in periplasmic extract; also called clone nr) VHH: EVQLVESGGGWVQVGESLRLSCAPSGRTFVSGIMGWFRQTPGKEREFVARIILNNNSTRYTDSVKGRFTISRDSAKNTLYLQMNTLRPEDTAVYYCAARDRYGSGNSLSPSAYDYWGQGTQVTVSS | 0.0187 s⁻¹
* FJ1427_P035MP04F07 (VHH, VHH in periplasmic extract; also called clone nr) VHH: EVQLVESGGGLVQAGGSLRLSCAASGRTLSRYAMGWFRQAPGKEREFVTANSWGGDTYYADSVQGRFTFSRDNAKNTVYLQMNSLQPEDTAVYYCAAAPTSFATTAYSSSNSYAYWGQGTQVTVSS | 0.00249 s⁻¹
* FJ1427_P035MP04H07 (VHH, VHH in periplasmic extract; also called clone nr) VHH: QLQLVESGGGLVQAGGSLRLSCAASGRTLSRYAMGWFRQAPGKEREFVTANSWGGDTYYADSVQGRFTFSRDNAKNTVYLQMNSLQPEDTAVYYCAAAPTSFATTAYSSSNSYAYWGQGTQVTVSS | 0.00154 s⁻¹

Q: Look up koff: 27-MP04G01 (VHH, VHH in periplasmic extract; also called FJ1427_P035MP04G01; clone nr) VHH: QVQLVESGGGLVQAGGSLTLSCAAPGRTFGTDVVGWFRQAPGKEREFVASISRSGDGIYYDDSVKGRFTISRNNAWNTVNLQMNSLKVEDTAVYYCAAGDGWSTYDYWGQGTQVTVSS
Result: 0.00131 s⁻¹
